src = paper PMC5540273

Tested on: PAK6
Settings: concentration: 1 μM, replicates: in singlicate; n = 1;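 also: KINOMEscan kinase panel screen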
Field: %Inh. Provide a value for each of the compounds that follow.
Answers are plain numbers, in %.

Please supply %Inh for each of the following items, keeping them in order.
1. NCCCC(NC(=O)c1cc(Br)c(-c2ccnc3[nH]ccc23)s1)c1ccccc1.O=C(O)C(F)(F)F.O=C(O)C(F)(F)F (stereo not shown)
2. Nc1n[nH]c2cnc(-c3ccccc3)cc12
3. CCn1c(-c2nonc2N)nc2c(C#CC(C)(C)O)nc(OC[C@H](N)c3ccccc3)cc21
4. O=c1[nH]cc(-c2ccc(N3CCOCC3)cc2)c2sc(-c3cn[nH]c3)cc12

1. 56
2. 0
3. 97.9
4. 17

* * *

System: HCK
Conditions: concentration: 1 μM, replicates: in singlicate; n = 1
Field: %Inh. Provide a value for each of the molecules that follow.
Give bare numbers, in %.

These solved cases illustrate the format of a correct answer.
Summary line: COc1cc(Nc2nccc(N3CCC(NC(=O)c4cc5ccccc5s4)C3)n2)cc(OC)c1OC (centres unmarked) [GSK1379760] , HCK, reported %Inh = 0

Summary line: `COCCOCCOc1cc2ncc3c4ccc(C#N)cc4[nH]c3c2cc1OC` , HCK, reported %Inh = 4

Summary line: O=C(Nc1cccc(-c2nn3ncccc3c2-c2ccnc(Nc3ccccc3)n2)c1)c1c(F)cccc1F [GSK198271] , HCK, reported %Inh = 99.3

Summary line: c1ccc(-c2cnc3nccnn23)cc1 [AH20685] , HCK, reported %Inh = 0

Please supply %Inh for each of the following items, keeping them in order.
1. CSc1cccc2c(-c3ccncn3)c(-c3ccc(F)cc3)nn12 [GW514786]
2. Cc1cccc(Nc2nc(N[C@H]3CCNC3)ncc2C(N)=O)c1.Cl [GSK2197149]
3. COc1ccc(CNC(=O)NC2CCN(c3ccnc(Nc4ccc(F)cc4)n3)CC2)cc1 [GSK1379788]
4. FC(F)(F)c1ccc(/C=C/c2cncnc2Nc2ccc3[nH]c(Cc4ccccc4)nc3c2)cc1 [GW709199]
5. COc1cccc(-c2ccc3c(NC(=O)C4CC4)n[nH]c3n2)c1 [SB-710903]
6. O=C(Nc1cccc(-c2nn3ccccc3c2-c2ccnc(Nc3cccc(C(F)(F)F)c3)n2)c1)c1c(F)cccc1F [GSK292658]
7. COc1cc(Nc2nccc(-c3c(-c4cccc(NC(=O)c5c(F)cccc5F)c4)nn4ncccc34)n2)cc(OC)c1OC [GSK327238]

1: 0; 2: 82; 3: 0; 4: 14; 5: 0; 6: 96.9; 7: 96.6

* * *

Field: %Inh. Provide a value for each of the compounds that follow.
Tested on: ACVR2A
Conditions: concentration: 1 μM, replicates: in singlicate; n = 1
One number for each entry, in %.

These solved cases illustrate the format of a correct answer.
// recorded %Inh for CCn1c(-c2nonc2N)nc2c(C#CC(C)(C)O)ncc(OCCCCN)c21.O=C(O)C(F)(F)F.O=C(O)C(F)(F)F [GSK507274] : 7

// recorded %Inh for Oc1cc(Nc2ccnc3cc(I)ccc23)ccc1F [GW552771] : 100

// recorded %Inh for CSc1cccc2c(-c3ccncn3)c(-c3ccc(F)cc3)nn12 [GW514786] : 0

Continuing:
// recorded %Inh for FC(F)(F)c1ccc(/C=C/c2cncnc2Nc2ccc3[nH]c(Cc4ccccc4)nc3c2)cc1 [GW709199] : 24

* * *

Tested on: PRKG1
Details: concentration: 1 μM, replicates: in singlicate; n = 1
Field: %Inh. Provide a value for each of the compounds that follow.
Answers are plain numbers, in %.

These solved cases illustrate the format of a correct answer.
// recorded %Inh for `CCCCc1nn2ncccc2c1-c1ccnc(Nc2ccc(N3CCN(C)CC3)cc2)n1` : 0

// recorded %Inh for `CNC(=O)c1ccccc1Nc1nc(Nc2ccc(N3CCOCC3)cc2)ncc1Cl.Cl` : 74

// recorded %Inh for `CN(C)Cc1ccc(-c2ccc3c(Nc4ccc(Oc5ccccn5)cc4)ccnc3c2)o1` : 0

Please supply %Inh for each of the following items, keeping them in order.
1. C[C@@H]1CC[C@@H](C(=O)Nc2ccccc2)CN1c1cc(-c2ccc3c(N)n[nH]c3c2)nc(N)n1
2. CN1CCN(Cc2cccc(-c3ccc4c(Nc5ccc(Oc6ccccc6)cc5)ccnc4c3)c2)CC1
3. O=C(Nc1cccc(-c2nn3ncccc3c2-c2ccnc(Nc3ccccc3)n2)c1)c1c(F)cccc1F
4. COc1cc(Nc2ncc3c(C)nc(-c4cc5ccccc5[nH]4)n3n2)cc(OC)c1OC
5. Cl.Cl.NCC(NCc1ccc(-c2ccnc3[nH]ccc23)s1)c1ccccc1 (centres unmarked)

1: 0; 2: 0; 3: 0; 4: 0; 5: 97.1

* * *

Tested on: RPS6KA4(Kin.Dom.2-C-terminal)
Conditions: concentration: 1 μM, replicates: in singlicate; n = 1
Field: %Inh. Provide a value for each of the compounds that follow.
Give bare numbers, in %.

These solved cases illustrate the format of a correct answer.
// recorded %Inh for `CSc1cccc2c(-c3ccncn3)c(-c3ccc(F)cc3)nn12` : 0

// recorded %Inh for `Cl.c1ccc(-c2ccc3c(Nc4ccc5[nH]ccc5c4)ccnc3c2)nc1` : 0

// recorded %Inh for `CC(C)(C)c1ccc2nccc(Nc3cccc(O)c3)c2c1` : 0

// recorded %Inh for `COC(=O)Nc1nc2ccc(Oc3ccc(NC(=O)Nc4cc(C(F)(F)F)ccc4F)cc3)cc2n1C.Cl` : 0

// recorded %Inh for Cl.Cl.NCC(NCc1ccc(-c2ccnc3[nH]ccc23)s1)c1ccccc1 (centres unmarked) : 57

Please supply %Inh for each of the following items, keeping them in order.
1. NCCCC(NC(=O)c1cc(Br)c(-c2ccnc3[nH]ccc23)s1)c1ccccc1.O=C(O)C(F)(F)F.O=C(O)C(F)(F)F (centres unmarked)
2. COc1cc(Nc2nccc(-c3c(-c4cccc(NC(=O)c5c(F)cccc5F)c4)nn4ccccc34)n2)cc(OC)c1OC
3. COc1ccc(CNC(=O)NC2CCN(c3ccnc(Nc4ccc(F)cc4)n3)CC2)cc1

1: 1; 2: 0; 3: 0

Please supply %Inh for each of the following items, keeping them in order.
1. O=C(NC1CCN(c2ccnc(Nc3ccc(F)cc3)n2)C1)c1cc2ccccc2s1 (centres unmarked)
2. Nc1ncnc2c1nc(-c1ccccc1)n2-c1ccccc1
3. O=c1[nH]cc(-c2ccc(N3CCOCC3)cc2)c2sc(-c3cn[nH]c3)cc12
4. CN(c1ccc(NC(=O)Nc2cc(C(F)(F)F)ccc2F)cc1)c1ccnc(Nc2ccc(S(N)(=O)=O)cc2)n1
5. C[C@@H](Oc1cc(-n2cnc3cc(-c4ccnc(NCCS(C)(=O)=O)c4)ccc32)sc1C(N)=O)c1ccccc1Cl

0
10
0
1
0

Please supply %Inh for each of the following items, keeping them in order.
1. Cc1ccc(C(=O)Nc2ccc(Nc3ccnc4cc(-c5nccs5)ccc34)cc2O)cc1.Cl
2. Cl.NC(=O)c1cccc(Nc2nccc(Nc3ccc(Oc4c(Cl)cccc4Cl)c(Cl)c3)n2)c1
3. COc1cccc(-c2ccc3c(NC(=O)C4CC4)n[nH]c3n2)c1
4. COc1cccc(C(=O)Nc2cccc(Oc3ccc4nc(NC(=O)C5CC5)cn4n3)c2)c1
5. CN(C)S(=O)(=O)c1cc(-c2ccc3nccc(-c4cccc(S(N)(=O)=O)c4)c3c2)cnc1N

1: 0; 2: 0; 3: 0; 4: 10; 5: 0

* * *

System: SNARK
Construct: gene NUAK2
Settings: concentration: 1 μM, replicates: in singlicate; n = 1
propertyName: %Inh (%)
One number for each entry, in %.

Summary line: `CN1CCN(CCCNc2nccc(-c3c(-c4ccc(F)cc4)nn4cc(C(F)(F)F)ccc34)n2)CC1` , SNARK, reported %Inh = 0

Summary line: `O=C(Nc1n[nH]c2nc(-c3ccc(O)cc3)ccc12)C1CC1` , SNARK, reported %Inh = 0

Summary line: `O=C(Nc1cccc(-c2nn3ccccc3c2-c2ccnc(Nc3cccc(F)c3)n2)c1)c1c(F)ccc(F)c1Cl` , SNARK, reported %Inh = 4

Please supply %Inh for each of the following items, keeping them in order.
1. Nc1n[nH]c2cnc(-c3ccccc3)cc12
2. Cl.c1ccc(-c2ccc3c(Nc4ccc5[nH]ncc5c4)ccnc3c2)nc1
3. COc1ccc(Nc2nccc(N3CCC(NC(=O)Nc4cccc(OC)c4)C3)n2)cc1 (centres unmarked)
4. Cl.Cl.NCC(NCc1ccc(-c2ccnc3[nH]ccc23)s1)c1ccccc1 (centres unmarked)
5. CN(C)S(=O)(=O)c1cc(-c2ccc3nccc(-c4cccc(S(N)(=O)=O)c4)c3c2)cnc1N
6. CN1CCN(Cc2cccc(-c3ccc4c(Nc5ccc(Oc6ccccc6)cc5)ccnc4c3)c2)CC1
7. O=C(Nc1cccc(Oc2ccc3nc(NC(=O)C4CC4)cn3n2)c1)c1ccccc1C(F)(F)F

1. 60
2. 20
3. 0
4. 93.5
5. 22
6. 0
7. 0

Please supply %Inh for each of the following items, keeping them in order.
1. COCCOCCOc1cc2ncc3c4ccc(C#N)cc4[nH]c3c2cc1OC
2. CN(C)Cc1ccc(-c2ccc3c(Nc4ccc(Oc5ccccn5)cc4)ccnc3c2)o1

1: 83; 2: 12

Please supply %Inh for each of the following items, keeping them in order.
1. Clc1ccc(-c2nn3ncccc3c2-c2ccnc(Nc3ccc4c(c3)OCCO4)n2)cc1
2. CCc1ccc(-c2ccc3c(c2)-c2c(cnn2C)S(=O)(=O)N3C)cc1

[0, 8]

Please supply %Inh for each of the following items, keeping them in order.
1. C[C@@H]1CC[C@@H](C(=O)Nc2ccccc2)CN1c1cc(-c2ccc3c(N)n[nH]c3c2)nc(N)n1
2. COc1cccc(-c2ccc3c(NC(=O)C4CC4)n[nH]c3n2)c1
3. COc1cc(Nc2nccc(-c3c(-c4cccc(NC(=O)c5c(F)cccc5F)c4)nn4ncccc34)n2)cc(OC)c1OC

1: 11; 2: 0; 3: 95.2
